test system: Saccharomyces cerevisiae; experiment: protein stability index of tFT-peptide fusion (C-terminal peptide) (PSI (0-1 scale)); higher = more stable (slower turnover); details: genetic background: das1 deletion; temperature: 30 C
Rule: met for protein stability index not less than 0.7, not met for anything less.

State whether the measured protein stability index reaches 0.7, counting equality as reaching it, for KGFQFGLGLAFL [SAM50 C-terminal 12 aa]
met

---

tested on: Saccharomyces cerevisiae; assay: protein stability index of tFT-peptide fusion (C-terminal peptide) (PSI (0-1 scale)); higher = more stable (slower turnover); conditions: genetic background: cdc53-1; temperature: 37 C
ASSAY READOUT: protein stability index
Answers are plain numbers.

Below are worked cases with known answers.
Supply reported protein stability index belonging to this sequence: QGPHISQYRTHR
0.723

Look up and state reported protein stability index for SFVLLSSFLVFV
0.272

In one line, give reported protein stability index of the entry VGDIRSFALWYA .
0.765

Name the recorded protein stability index of the item LAPPFPVVLTPA in your answer.
0.324

Identify measured protein stability index associated with RLSTPFTVNHFI
0.732

State its protein stability index: SVIVSSFFLWVF
0.454

Quote protein stability index reported for GICLVLVSDIWI please.
0.558

Output measured protein stability index for this item: YVVYLQVCWMRS
0.206

Using known records, supply protein stability index for RLRHPPRLSTLC
0.743

Let me know recorded protein stability index for PLRKYLRHLLSL , thanks.
0.745

Below are 7 sequences. Give each one its protein stability index.
1. LGGVEDRWRTAT
2. GHHLRVRVILTA
3. IFLGFGPLFGRL
4. ILGQSVIMRIKM
5. LRNYKCLRLLIC
6. CPMFVKFFFCLY
7. LFSFFVFFFLLD

[0.704, 0.435, 0.878, 0.73, 0.476, 0.462, 0.446]

List reported protein stability index for each of these sequences:
1. VYQAFIFRMSLF
2. TVRVWPRNLWFS

[0.672, 0.677]

---

test system: Saccharomyces cerevisiae; assay: protein stability index of tFT-peptide fusion (C-terminal peptide) (PSI (0-1 scale)); higher = more stable (slower turnover); conditions: genetic background: cdc34-1; temperature: 37 C
ASSAY READOUT: protein stability index
Give bare numbers.

Using Saccharomyces cerevisiae as the test system, report measured protein stability index of WFALFYFLVSAF .
0.189

Lab note: Saccharomyces cerevisiae assay, enter protein stability index for RLVPFMAVRVLF here
0.571

Provide protein stability index, recorded with Saccharomyces cerevisiae, of LVVYLSCVACIN
0.0319

Hello, I would appreciate it if you could give protein stability index for each entry below.
1. KCVVMFFLRSVS
2. RPPPTPRSVLLN
3. KLKDLTRIKIFR
4. PPTLLPPLHPAP
5. RWTKMNNLIIEF
6. RKKIRTYINENV
7. YSIHYLRFFSLF

1. 0.636
2. 0.67
3. 0.681
4. 0.681
5. 0.693
6. 0.686
7. 0.473

Your task in this section: give protein stability index for each listed record.
1. PPRCLLPPPSRS
2. PPQDQAPVGVND
3. GHHLRVRVILTA
4. GGLLSQLLRSIG
5. FCIFAMQICTSA

1: 0.652; 2: 0.672; 3: 0.41; 4: 0.664; 5: 0.126

Required: protein stability index, one value per sequence below.
1. FFSRIIAILVLM
2. KIKKLKNRRKLV
3. QVLISLYVHGYF
4. VYRVTGSWLMWV

1. 0.37
2. 0.673
3. 0.551
4. 0.511

Record protein stability index for all entries; do not skip any.
1. VLLRSRLLRRLS
2. PAPANRPTPRPV
3. VLILFFLVVFYV
4. CRRQLKVLKSMS

1: 0.588; 2: 0.666; 3: 0.217; 4: 0.581
